Overview of recorded inhibition at 1 µM for various compounds
target: UniProtKB P42680; experiment: Inhibition of recombinant human cytoplasmic full length His-tagged TEC expressed in baculovirus at 1 uM by Z'-LYTE assay
Sequence (P42680 whole entry): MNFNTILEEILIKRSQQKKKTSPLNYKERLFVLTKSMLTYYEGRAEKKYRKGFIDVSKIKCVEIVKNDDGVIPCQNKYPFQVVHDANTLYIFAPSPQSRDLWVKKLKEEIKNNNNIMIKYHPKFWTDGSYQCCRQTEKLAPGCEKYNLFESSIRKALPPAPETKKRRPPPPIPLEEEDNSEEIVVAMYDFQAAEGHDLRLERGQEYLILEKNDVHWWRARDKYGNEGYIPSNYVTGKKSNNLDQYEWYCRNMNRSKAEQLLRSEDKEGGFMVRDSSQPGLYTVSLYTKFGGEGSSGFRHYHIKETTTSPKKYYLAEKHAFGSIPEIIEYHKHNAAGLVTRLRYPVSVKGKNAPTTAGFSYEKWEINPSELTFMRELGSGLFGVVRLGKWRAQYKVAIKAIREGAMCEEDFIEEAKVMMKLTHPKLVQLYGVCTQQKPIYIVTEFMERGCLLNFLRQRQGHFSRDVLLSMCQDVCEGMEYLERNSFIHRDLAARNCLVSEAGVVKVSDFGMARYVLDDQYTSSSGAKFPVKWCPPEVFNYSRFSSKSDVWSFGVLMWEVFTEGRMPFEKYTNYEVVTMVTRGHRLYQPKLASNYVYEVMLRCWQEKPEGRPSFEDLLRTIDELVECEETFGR
Provide the reading as a plain figure in %.

> print(dat)
                                item.smiles   target.of.assay  unit.name  result
1  C=CC(=O)N1CCC[C@@H](n2nc(-c3ccc(Oc4ccccc4)cc3)c3c(N)ncnc32)C1  UniProtKB P42680          %     100
2  C[C@H]1CN(C2COC2)CCN1c1ccc(Nc2cc(-c3ccnc(N4CCn5c(cc6c5CC(C)(C)C6)C4=O)c3CO)cn(C)c2=O)nc1  UniProtKB P42680          %      23
3  C=CC(=O)N1CCC(CNc2ncnc(N)c2-c2ccc(Oc3ccccc3)cc2)CC1  UniProtKB P42680          %      80
4  CC#CC(=O)N1CCC[C@H]1c1nc(-c2ccc(C(=O)Nc3ccccn3)cc2)c2c(N)nccn12  UniProtKB P42680          %      71
5  CC#CC(=O)N1CC[C@@H](n2c(=O)n(-c3ccc(Oc4ccccc4)cc3)c3c(N)ncnc32)C1  UniProtKB P42680          %      86
6  Cc1c(-c2c(F)cc(C(N)=O)c3[nH]c4c(c23)CC[C@@H](C(C)(C)O)C4)cccc1-n1c(=O)c2cccc(F)c2n(C)c1=O  UniProtKB P42680          %      98

Let us move to another entry and its inhibition at 1 µM.
Record for C=CC(=O)Nc1cccc(Nc2nc(Nc3ccc(OCCOC)cc3)ncc2F)c1 under target or system UniProtKB P42680: inhibition at 1 µM reported as 92

* * *

test: Permeability across apical to basolateral in MDCK1 cells; type: ADME, cell-based, Canis lupus familiaris; details: dog, MDCK; read-out: permeability
Overview of recorded Papp A→B for various molecules
Provide the reading as a plain figure in ×10⁻⁶ cm/s.

> print(dat)
                                item.smiles   unit.name  result
1  C[C@H]1CN(C2COC2)CCN1c1ccc(Nc2cc(-c3ccnc(N4CCn5c(cc6c5CC(C)(C)C6)C4=O)c3CO)cn(C)c2=O)nc1  ×10⁻⁶ cm/s    15.1

Briefly, Papp A→B measured for C[C@@H]1CN(c2ccc(Nc3cc(-c4ccnc(N5CCn6c(cc7c6CC(C)(C)C7)C5=O)c4CO)cn(C)c3=O)nc2)[C@@H](C)CN1C1COC1 : 7.2

Briefly, Papp A→B measured for CC[C@H]1CN(C2COC2)CCN1c1ccc(Nc2cc(-c3ccnc(N4CCn5c(cc6c5CC(C)(C)C6)C4=O)c3CO)cn(C)c2=O)nc1 : 9.5

Briefly, Papp A→B measured for COCCN1CCN(c2ccc(Nc3cc(-c4ccnc(N5CCn6c(cc7c6CC(C)(C)C7)C5=O)c4CO)cn(C)c3=O)nc2)CC1 : 12.5

Briefly, Papp A→B measured for C[C@H]1CN(C2COC2)CCN1c1cnc(Nc2cc(-c3ccnc(N4CCn5c(cc6c5CC(C)(C)C6)C4=O)c3CO)cn(C)c2=O)cn1 : 15.6

Briefly, Papp A→B measured for C[C@@H]1CN(C2COC2)CCN1c1ccc(Nc2cc(-c3ccnc(N4CCn5c(cc6c5CC(C)(C)C6)C4=O)c3CO)cn(C)c2=O)nc1 : 7.8

Briefly, Papp A→B measured for Cn1cc(-c2ccnc(N3CCn4c(cc5c4CC(C)(C)C5)C3=O)c2CO)cc(Nc2ccc(C3CN(C4COC4)C3)cn2)c1=O : 48.5

Briefly, Papp A→B measured for Cn1cc(-c2ccnc(N3CCn4c(cc5c4CC(C)(C)C5)C3=O)c2CO)cc(Nc2ccc(N3CCN(CCC(F)(F)F)CC3)cn2)c1=O : 14.2

Briefly, Papp A→B measured for C[C@H]1CN(C2COC2)CCN1c1ccc(Nc2cc(-c3ccnc(N4CCn5c(cc6c5CC(C)(C)C6)C4=O)c3CO)nn(C)c2=O)nc1 : 17.3

* * *

molecular target: UniProt P29376; assay: Inhibition of recombinant human cytoplasmic GST-tagged LTK expressed in baculovirus at 1 uM by Z'-LYTE assay
Sequence (P29376 whole entry): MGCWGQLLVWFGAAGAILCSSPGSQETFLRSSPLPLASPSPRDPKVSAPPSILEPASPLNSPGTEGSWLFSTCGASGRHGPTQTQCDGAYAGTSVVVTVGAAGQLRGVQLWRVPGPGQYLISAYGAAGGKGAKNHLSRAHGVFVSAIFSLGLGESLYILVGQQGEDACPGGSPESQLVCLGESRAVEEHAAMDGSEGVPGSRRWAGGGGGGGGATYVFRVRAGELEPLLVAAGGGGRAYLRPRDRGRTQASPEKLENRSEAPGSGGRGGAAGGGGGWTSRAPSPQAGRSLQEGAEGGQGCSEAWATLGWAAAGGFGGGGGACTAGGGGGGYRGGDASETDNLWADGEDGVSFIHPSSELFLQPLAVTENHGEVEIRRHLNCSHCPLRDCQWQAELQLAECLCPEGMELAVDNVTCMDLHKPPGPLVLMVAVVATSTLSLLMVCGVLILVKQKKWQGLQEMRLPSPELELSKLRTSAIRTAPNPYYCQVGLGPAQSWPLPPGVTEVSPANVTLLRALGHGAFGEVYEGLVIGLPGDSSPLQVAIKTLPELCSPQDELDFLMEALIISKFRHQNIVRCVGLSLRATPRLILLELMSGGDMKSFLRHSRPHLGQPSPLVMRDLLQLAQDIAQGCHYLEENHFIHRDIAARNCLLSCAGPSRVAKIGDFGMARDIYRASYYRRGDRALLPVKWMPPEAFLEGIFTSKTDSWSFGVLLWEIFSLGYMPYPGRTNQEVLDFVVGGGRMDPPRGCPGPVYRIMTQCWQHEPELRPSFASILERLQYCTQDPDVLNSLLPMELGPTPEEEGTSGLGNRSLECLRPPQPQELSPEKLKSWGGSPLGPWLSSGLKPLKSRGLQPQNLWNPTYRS
Overview of recorded inhibition at 1 µM for various molecules
Numeric answer plus unit only.

> print(dat)
                                item.smiles  result
1  CC#CC(=O)N1CC[C@@H](n2c(=O)n(-c3ccc(Oc4ccccc4)cc3)c3c(N)ncnc32)C1     -5%

Briefly, inhibition at 1 µM measured for CC#CC(=O)N1CCC[C@H]1c1nc(-c2ccc(C(=O)Nc3ccccn3)cc2)c2c(N)nccn12 : 2%

Briefly, inhibition at 1 µM measured for Cc1c(-c2c(F)cc(C(N)=O)c3[nH]c4c(c23)CC[C@@H](C(C)(C)O)C4)cccc1-n1c(=O)c2cccc(F)c2n(C)c1=O : 47%
